Reference for the values: the RNAGym collection of RNA variant scans (doi:10.1073/pnas.2313332121)

B1: TPR t1 (parent)
chain: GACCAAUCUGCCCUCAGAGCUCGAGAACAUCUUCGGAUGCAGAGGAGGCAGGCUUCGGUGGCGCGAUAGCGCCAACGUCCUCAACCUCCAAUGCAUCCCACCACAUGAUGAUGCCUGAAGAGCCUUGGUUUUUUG

# Variants of: B1
# experimentalDetails: polymerase ribozyme fitness, log enrichment relative to wild type (log ratio); higher = more active; in vitro selection for triplet polymerase activity
Each entry below carries its recorded polymerase ribozyme fitness (log ratio).

[
  {
    "polymerSequence": "GACCAAUCUGCCCUCAGAGCUCGAGAACAUCUUCGGGUGCAGAGGAGGCAGGCUUCGGUGGCGCGAUAGCGCCAACGUCCUCAACCUCCAAUGCAUCCCACCACAUGAUGAUGCCUGAAGAGCCUUGGUUUUUUG",
    "polymerase ribozyme fitness (log ratio)": -0.185
  },
  {
    "polymerSequence": "GACCAAUCUGCCCUCAGAGCUCGAGAACAUCUUCGGAUGCACAGGAGGCAGGCUUCGGUGGCGCGAUAGCUCCAACGUCCUCAACCUCCAAUGCAGCCCACCACAUGAUGAUGCCUGAAGAGCCUUGGUUUUUUG",
    "polymerase ribozyme fitness (log ratio)": -3.01
  },
  {
    "polymerSequence": "GACCAAUCUGCCCUCAGAGCUCGAGAACAUCUUCGGAUGCAGAGGAGGCAGGCUUCGGUAGCGCGAUAGCGCCAACGUCCUCAACCUCCAAUGCAUCCCACCACAUGAUGAUGCCCGCAGAGCCUUGGUUUUUUG",
    "polymerase ribozyme fitness (log ratio)": -3.05
  },
  {
    "polymerSequence": "GACCAAUCUGCCCUCAGAGCUCGAGAACAUCUUCGGAUGCAGACGACGCAGGCUUCGGUGGCCCGAUAGCGCCAACGUCCUCAACCUCUAAUGCAUCCCACCACAUGAUGAUGCCUGAAGAGCCUUGGUUUAUUG",
    "polymerase ribozyme fitness (log ratio)": -4.25
  },
  {
    "polymerSequence": "GACCAAUCUGCUCUCAGAGCUCGAGAACAUCUUCGGAUGCAGAGGAUGCAGGCUUCGGUGGCGCGAUAGCGCCAACGUCCUCAAUCUCCAAUGCAUCCCACCACAUGAUGAUGCCUGAAGAGCCUUGGGUUUUUG",
    "polymerase ribozyme fitness (log ratio)": -3.07
  },
  {
    "polymerSequence": "GACCAAUCUGCCCUCAUAGCUCGAGAACAUCUUCGGAUGCAGAGGAGGCAGGCUUCGGUGGCCCGAUAGCGCCAACGUCCUCAACCUCCAAUGCAUCCCACCACAUGAUGAUGCCUGAAGAGCCUUGGUUUUUUG",
    "polymerase ribozyme fitness (log ratio)": -3.04
  },
  {
    "polymerSequence": "GACCAAUGUGUCCUCAGAGCUCGAGAACAUCUUCGGAUGCAGAGGAGGCAGGCUUCGGUGGCGCGAUAGCGCCAACGUCCUCAAUCUCCAAUGCAUCCCACCACAUGAUGAUGCCUGAAGAGCCUUGGUCUUUUG",
    "polymerase ribozyme fitness (log ratio)": -0.895
  },
  {
    "polymerSequence": "GACCAAUCUGCCCUCAGAGCUCGAGAAAAUCUUCGGAUGCAGAGGAGGCAGGCUUCGGUGGCGCGAUAGCGUCAACGUCCUCAACCUCCAAUGCAUCCCACCACAUGAUGAUGCCUGAAGAGUCUUGGUUUUUUG",
    "polymerase ribozyme fitness (log ratio)": -3.7
  },
  {
    "polymerSequence": "GACCAAUCUGCCCUCAGAGCUCGAGAACAUCUUCGGAUGCAGAGGAGGCAGGCUUCGGUGGAGCGAUAGCGCCAACGUCCUCAACCUCCAAUGCAUCCCACCACAUGAGUAUGCCUGAAGAGCCUUGGUUUUUUG",
    "polymerase ribozyme fitness (log ratio)": -4.7
  },
  {
    "polymerSequence": "GACCAAUCUGCCCUCAGAGCUCGAGAACAUCUUCGGAUGCAGAGGAGGCAGGCUUCGGGGGCGCGAUAGCGCCAACGUCCUCCACCUCCAAUGCAUUCCACCACAUGAUGAUGCCUGAAGAGCCUUGGUUUUUUG",
    "polymerase ribozyme fitness (log ratio)": -0.481
  },
  {
    "polymerSequence": "GACCAAUCUGCCCUCAGAGCUCGAGAACAUCUUCGGAUGCAGAGGAGGCAGGCUUCGGUGGCGCGAUAGCGCCAACGUCCUCAACCUCCAAUGCAUCUCACCACAUGAUGAAGCCUGAAGAGCCUUGGUUUUUUG",
    "polymerase ribozyme fitness (log ratio)": -1.61
  },
  {
    "polymerSequence": "GACCAAUCUGCCCUCAGAGCUCGAGAACAUCUUCGGAUGCAGAGGAGGCAGGCUUCGGUGGCGUGAUAGCGCCAACGUCCUCAACCUCCAAUGCAUCCCACCACAUGAUGUUGCCUGAAGAGCCUUGGUUUUUUG",
    "polymerase ribozyme fitness (log ratio)": -3.24
  },
  {
    "polymerSequence": "GACCAAUCUGCCCUCAGAGCUCGAGAACAUCUUCGGAUGCAGAGGAGGCAGGCUUCGGUGGCGCGAUAGCGCCAACGUCCUCAACCUCCAAUGCAUCCCACCACAUGAUGAUGCCGGAAGAGCCUUGUUUUUUUG",
    "polymerase ribozyme fitness (log ratio)": -4.55
  },
  {
    "polymerSequence": "GACCAAUCUGCCCUCAGAGCUCGAGAACAUCUUCGGAUGCAGAGGAGGCAGGCUUCGGUGGCGCGAUAGCGCCAACGUCCACAACCUCCAAUGCAUCCCACCACAUGAUGAUGCCUGAAGCGCCUUGGUUUUUUG",
    "polymerase ribozyme fitness (log ratio)": 0.745
  },
  {
    "polymerSequence": "GACCAAUCUGCCCUCAGAGCUCGAGGACAUCUUCGGAAUCAGAGGAGGCAGGCUUCGGUGGCGCGAUAGCGCCAACGUCCUCAACCUCCAAUGCAUCCCACCACAUGAUGAUGCCUGAAGAGCCUUGGUUUUUUG",
    "polymerase ribozyme fitness (log ratio)": -4.5
  },
  {
    "polymerSequence": "GACCAAUCUGCCCUCAGAGCUCGAGAACAUCUUCGGAGGCAGAGGAGGCAGGCUUUGGUGGCGCGAUAGCGCCAACGUCCACAACCUCCAAUGCAUCCCACCACAUGAUGAUGCCUGAAGAGCCUUGGUUCUUUG",
    "polymerase ribozyme fitness (log ratio)": -2.23
  },
  {
    "polymerSequence": "GACCAAUCUGCCCUCAGAGCUCGAGAUCAUCUUCGGAUGCAGAGGAGGGAUGCUUCGGUGGCGCGAUAGCGCCAACGUGCUCAACCUCCAAUGCAUCCCACCACAUGAUGAUGCCUGAAGAGCCUUGGUUUUUUG",
    "polymerase ribozyme fitness (log ratio)": -6.98
  },
  {
    "polymerSequence": "GACCAAUCUGCCCUCAGAGCUCGAGAACAUCUUCGGAUGCAGAGGAGGCAGGCUUCGCCGGCGCGAUAGCGCCAACGUCCUCCACCUCCAAUGCAUCCCACCACAAGAUGAUGCCUGAAGAGCCUUGGUUUUUUG",
    "polymerase ribozyme fitness (log ratio)": -0.577
  },
  {
    "polymerSequence": "GACCAAUCUGCCCUCAGAGCUCGAGAACAUCUUCGGAUGCAGCGGAGGCAGGCUUCGGUGGGGCGAUAGCGCCAACGUCCUCAACCUCCAAUGCAUCCCACCACAUGAUGAUGCCUGAAAAGCCUUGGUUUUUUG",
    "polymerase ribozyme fitness (log ratio)": -4.98
  },
  {
    "polymerSequence": "GACCAAUCUGCCCUCAGAGCUCGAGAACAUCUUCGGAUGCAGAGGAGGCAGGCUUCGGUGGCGCGAUAGCGCCAACGUCCUCAACCUCCAAUGCAUCCCUCCACAUGAUGGUGCCUGAAGAGCCUUGGUUUUUUG",
    "polymerase ribozyme fitness (log ratio)": 0.222
  },
  {
    "polymerSequence": "GACCAAUCUGCCCUCAGAGCUCGAGAACAUCUUCGGAUGCAGAGGAGGCAGGUUUCGGUGGCGCGAUAGCGUCAACGUACUCAAUCUUCAAUGCAUCCCACCACAUGAUGAUGCCUGAAGAGCCUUGGUUUUUUG",
    "polymerase ribozyme fitness (log ratio)": -2.53
  },
  {
    "polymerSequence": "GACCAAUGUGCACUCAGAGUUCGAGAACAUCUUCGGCUGCAGAGGAGGCAGGCUUCGGUGGCGCGAUAGCGCCAACGUCCUCAACCUCCAAAGCAUCCCACCACAUGAUGAUUCCUGAAGAGCCUUGGUUUUUUG",
    "polymerase ribozyme fitness (log ratio)": -1.85
  }
]
